Assign inhibition in vivo at 15 mg/kg to each entry below.
- Tested on: fowl roundworm (Ascaridia galli)
- Method Description: Anthelmintic test in chickens artificially infected with fowl roundworm, single oral dose in gelatin capsule, worm bodies counted within 48 hours (Test Examples A1, B1, C1, D1)
- Assay type: in vivo
- Run Parameters: Ascaridia galli, po, 48 h, chicken, 15 mg/Kg oral in gelatin capsule; chickens No.1-3; read-out: Anthelmintic effect after 48 hours

Entry under test: C#CCNOCC#C . Its inhibition in vivo at 15 mg/kg was 100%

Please fill in: inhibition in vivo at 15 mg/kg reported for C#CCONCC=C = 100%

Record C#CCNOCC=C [Compound D13, N-propargyl-O-allylhydroxylamine] . Reported inhibition in vivo at 15 mg/kg: 80 to 90%

Quick note, inhibition in vivo at 15 mg/kg for C=CCNOCC=C landed at 80 to 90%

response.value for C=CCNOC (field: inhibition in vivo at 15 mg/kg) = 50 to 79%

Lookup result for C=CCNOCC.Cl [Compound D1, hydrochloride] ; measured inhibition in vivo at 15 mg/kg: 80 to 90%

Entry C#CCNOCC.Cl [Compound D10, hydrochloride] — recorded inhibition in vivo at 15 mg/kg = 100%

Lab book: inhibition in vivo at 15 mg/kg of C#CCNOC.Cl [Compound D16, hydrochloride] noted as 100%

For this compound ( C=CCONCC=CC ), measured inhibition in vivo at 15 mg/kg is 80 to 90%

meta.source: patent EP0103895A2
